Parameter: INHIBITION. Scope: all listed entries.
Test system: Plasmodium berghei
Assay: Screen against P. berghei liver stage (PbLuc), transformed with Luciferase, at 10uM
Type: functional, HepG2
Settings: tested at 10 uM
About 8,600 (12%) of roughly 69,000 compounds showed an effect of 50% or more. For the sample, strong results were picked, then their nearest neighbours and some compounds at random.
Write it as a number; the unit % goes unstated.

{"compound": "Cc1csc(C2(NC(=O)NCCN3CCOCC3)CCCC2)n1", "system_name": "Plasmodium berghei", "readout_label": "INHIBITION", "unit_annotation": "%", "measured_number": 64.5}
{"compound": "CNC(=O)c1ccc(C2CN(Cc3ccc(F)cc3)CCO2)nc1 (centres undefined)", "system_name": "Plasmodium berghei", "readout_label": "INHIBITION", "unit_annotation": "%", "measured_number": 2.55}
{"compound": "Cn1ncc2c1CCCN(C(=O)C1CC1)C2", "system_name": "Plasmodium berghei", "readout_label": "INHIBITION", "unit_annotation": "%", "measured_number": 24.69}
{"compound": "Cc1cc(C(=O)NCC(C)N2CCc3ccccc32)no1 (centres undefined)", "system_name": "Plasmodium berghei", "readout_label": "INHIBITION", "unit_annotation": "%", "measured_number": 21.8}
{"compound": "Cc1cc(N2CCC(N(C)C(=O)c3cccs3)CC2)nc(C)n1", "system_name": "Plasmodium berghei", "readout_label": "INHIBITION", "unit_annotation": "%", "measured_number": 22}
{"compound": "Cc1nnn2c1COC(CNCc1nccs1)C2 (centres undefined)", "system_name": "Plasmodium berghei", "readout_label": "INHIBITION", "unit_annotation": "%", "measured_number": -3.24}

query: So what does the record say about INHIBITION for Cn1c2ccccc2c2ncn(CCN3CCOCC3)c(=O)c21 ?
result: 63.6

query: So what does the record say about INHIBITION for CCN(Cc1cccc2c1OCO2)C(=O)NCc1ccccn1 ?
result: -27.8

query: So what does the record say about INHIBITION for Cc1ccnc(C(NC(=O)c2oc(C)nc2C)C2CC2)n1 (centres undefined) ?
result: 38.5

query: So what does the record say about INHIBITION for CC(=O)Cn1nc(-c2ccccc2F)ccc1=O ?
result: 64.2

query: So what does the record say about INHIBITION for Cc1noc2ncc(S(=O)(=O)N3CCCC(C)(C)CC3)cc12 ?
result: 36.1

query: So what does the record say about INHIBITION for Cc1nc(CN2CCN(CCOc3ccc(C(C)C)c(C)c3)CC2)no1 ?
result: 25.1

query: So what does the record say about INHIBITION for Cn1cc(CNCC2Cn3nnc(-c4ccccc4)c3CO2)cn1 (centres undefined) ?
result: 62

query: So what does the record say about INHIBITION for Cc1ccc2c(n1)N(CC1CC1)CCN(Cc1cnn(C)c1)C2 ?
result: 55.4

query: So what does the record say about INHIBITION for O=C(NCC1CC2(CO1)CN(Cc1cccs1)C2)C1CCC1 (centres undefined) ?
result: 27.6

query: So what does the record say about INHIBITION for Cc1noc(C(C)C)c1C(=O)NCCCN1CCNCC1 ?
result: -18

query: So what does the record say about INHIBITION for Cn1c2ccccc2c2ncn(CCCN3CCOCC3)c(=O)c21 ?
result: 29.1

query: So what does the record say about INHIBITION for CC(CNC(=O)c1ccc(=O)[nH]n1)N1CCc2ccccc21 (centres undefined) ?
result: 53

query: So what does the record say about INHIBITION for Cc1ccc2c(n1)N(C)CCN(Cc1cnn(C)c1)C2 ?
result: 49.4

query: So what does the record say about INHIBITION for Cc1cccc(CNC[C@H]2Cn3cc(-c4ccccc4)nc3CO2)n1 ?
result: -23.2

query: So what does the record say about INHIBITION for Cc1cc(N2CCC(O)CC2)nc(C)n1 ?
result: 41

----------
Tested on: Plasmodium berghei
Assay: Screen against P. berghei liver stage (PbLuc), transformed with Luciferase, at 10uM
Format: functional, HepG2
Settings: tested at 10 uM
Screen size: about 69,000 compounds; about 8,600 (12%) showed an effect of 50% or more. The full list was thinned out, with strong results kept by preference.
readout_label: INHIBITION (%)
Write it as a number; the unit % goes unstated.

Reference set, count: 4
{"compound": "COCc1ncn2c1CN(S(=O)(=O)c1cccc(OC)c1)CC2", "readout_label": "INHIBITION", "unit_annotation": "%", "measured_number": 62.4}
{"compound": "COc1ccccc1C(C)NC(=O)N1CCC(n2cncn2)CC1 (configuration not stated)", "readout_label": "INHIBITION", "unit_annotation": "%", "measured_number": 11.2}
{"compound": "COCc1ncn2c1CN(S(=O)(=O)c1ccc(C)cc1)CC2", "readout_label": "INHIBITION", "unit_annotation": "%", "measured_number": 80.3}
{"compound": "COCCNC(=O)C1CCCN(c2ccc3nncn3n2)C1 (configuration not stated)", "readout_label": "INHIBITION", "unit_annotation": "%", "measured_number": -21.9}

With those in mind, consider the next compound.
query: So what does the record say about INHIBITION for CNC(=O)CCS(=O)(=O)Cc1nnnn1-c1ccccc1 ?
result: 31.2

----------
Test system: Plasmodium berghei
Test: Screen against P. berghei liver stage (PbLuc), transformed with Luciferase, at 10uM
Format: functional, HepG2
Settings: tested at 10 uM
The whole screen tested about 69,000 compounds, of which about 8,600 (12%) showed an effect of 50% or more. This excerpt belongs to a sample that is enriched for strong results.
readout_label: INHIBITION (%)
Write it as a number; the unit % goes unstated.

Reference set, count: 3
{"molecule": "COCC(=O)N1CCC2(CC1)CN(c1cncnc1)C(=O)CO2", "INHIBITION, %": 24.1}
{"molecule": "Cc1nnc2n1CCN(C(=O)c1cc(Cl)c(Br)[nH]1)C2", "INHIBITION, %": -33.32}
{"molecule": "CC(=O)N1CCC2(CC1)c1ncc(-c3cccnc3)n1CCN2C", "INHIBITION, %": 58.4}

query: So what does the record say about INHIBITION for CCS(=O)(=O)N1CCC2(CC1)c1ncc(-c3cccnc3)n1CCN2C ?
result: 24.9

query: So what does the record say about INHIBITION for CC(=O)N1CCn2c(-c3cccc(F)c3)cnc2C12CCNCC2 ?
result: 24.9

query: So what does the record say about INHIBITION for COCC(=O)N1CCC2(CC1)CN(c1ccsc1)C(=O)CO2 ?
result: 64.9

----------
System: Plasmodium berghei
Experiment: Screen against P. berghei liver stage (PbLuc), transformed with Luciferase, at 10uM
Format: functional, HepG2
Settings: tested at 10 uM
Hit rate of the full screen: of about 69,000 compounds, about 8,600 (12%) showed an effect of 50% or more. What follows is part of a selection rich in strong results, with near analogues and random picks from the rest.
Parameter: INHIBITION. Scope: all listed entries.
Write it as a number; the unit % goes unstated.

Reference set, count: 5
{"molecule": "Cc1ccc(C(=O)N2CCC3(CC2)COC(COc2ccccn2)C3)o1 (stereo not given)", "unit_annotation": "%", "measured_number": -9.1}
{"molecule": "Cn1ccc2cc(CC3COCCN(C(=O)c4cccnc4)C3)ccc21 (stereo not given)", "unit_annotation": "%", "measured_number": 29.61}
{"molecule": "Cc1ccc2nnc(C(=O)NCCCn3cccn3)nc2c1", "unit_annotation": "%", "measured_number": 26.8}
{"molecule": "Fc1ccccc1CC1CCN(Cc2cscn2)CC1", "unit_annotation": "%", "measured_number": 82.4}
{"molecule": "CN1CCN(C(=O)c2ccc3c(c2)nc(N2CCOCC2)n3C)CC1=O", "unit_annotation": "%", "measured_number": -18.9}

With those in mind, consider the next molecule.
query: So what does the record say about INHIBITION for COCCC(=O)N1CCC2(COCc3cnc(N4CCOCC4)nc32)C1 (stereo not given) ?
result: 34.7

----------
System: Plasmodium berghei
Test: Screen against P. berghei liver stage (PbLuc), transformed with Luciferase, at 10uM
Type: functional, HepG2
Conditions: tested at 10 uM
The whole screen tested about 69,000 compounds, of which about 8,600 (12%) showed an effect of 50% or more. What follows is part of a selection rich in strong results, with near analogues and random picks from the rest.
readout_label: INHIBITION (%)
Write it as a number; the unit % goes unstated.

Reference set, count: 10
{"molecule": "CCS(=O)(=O)N1Cc2c(Cn3ccnc3)nn(C(C)C)c2C1", "system_name": "Plasmodium berghei", "unit_annotation": "%", "INHIBITION": 65.1}
{"molecule": "O=C(Cc1cccs1)N1CCC2(CC1)COCCN2CC1CC1", "system_name": "Plasmodium berghei", "unit_annotation": "%", "INHIBITION": 21.7}
{"molecule": "COCCNC(=O)c1ccc2c(=O)n3c(nc2c1)CCCCC3", "system_name": "Plasmodium berghei", "unit_annotation": "%", "INHIBITION": 40.8}
{"molecule": "N#Cc1ccc(CCC(=O)N2CCC(CN3CCOCC3)CC2)cc1", "system_name": "Plasmodium berghei", "unit_annotation": "%", "INHIBITION": 37.7}
{"molecule": "CCN(C(=O)C(C)S(=O)(=O)Cc1nc(C)no1)c1ccccc1 (configuration not stated)", "system_name": "Plasmodium berghei", "unit_annotation": "%", "INHIBITION": 26.9}
{"molecule": "COc1cccc(CC(=O)N2Cc3nccn3CC(CN(C)C)C2)c1 (configuration not stated)", "system_name": "Plasmodium berghei", "unit_annotation": "%", "INHIBITION": 40.8}
{"molecule": "Cc1cnn(CC2CCCN2C(=O)CCc2c(C)noc2Cl)c1 (configuration not stated)", "system_name": "Plasmodium berghei", "unit_annotation": "%", "INHIBITION": 0}
{"molecule": "N#Cc1ccc(CS(=O)(=O)NC(=O)COc2ccc3c(c2)CCC3)cc1", "system_name": "Plasmodium berghei", "unit_annotation": "%", "INHIBITION": -57.66}
{"molecule": "O=C(c1cc(Cl)c2c(c1)OCCCO2)N(CC1CCOC1)C1CC1 (configuration not stated)", "system_name": "Plasmodium berghei", "unit_annotation": "%", "INHIBITION": 30.9}
{"molecule": "CC(O)c1cccc(N2CCC3(CCC(=O)N(C4CCCC4)C3)CC2)n1 (configuration not stated)", "system_name": "Plasmodium berghei", "unit_annotation": "%", "INHIBITION": -9.31}

With those in mind, consider the next molecule.
query: // lookup INHIBITION | system=Plasmodium berghei | key= CCc1nc(C2CCCN2C(=O)CCc2cscn2)no1 (configuration not stated)
result: 18.2
